molecular target: cathepsin X (Mus musculus, UniProt Q9WUU7); assay: Probe labeling of kidney lysates, in-gel fluorescence; type: biochemical; conditions: 0.1-5 µM for 20 minutes
Sequence (Q9WUU7 64-306): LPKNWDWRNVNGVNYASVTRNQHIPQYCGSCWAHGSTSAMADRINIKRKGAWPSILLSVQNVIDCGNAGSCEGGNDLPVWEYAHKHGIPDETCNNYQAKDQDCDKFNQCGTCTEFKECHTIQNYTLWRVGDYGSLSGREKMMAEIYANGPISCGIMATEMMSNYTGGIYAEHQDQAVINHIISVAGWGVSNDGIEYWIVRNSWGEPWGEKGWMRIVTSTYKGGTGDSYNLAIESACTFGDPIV
Measurement kind: potency and specificity of labeling in kidney lysates

Compound	Study system	Value measured
CC[N+]1=C(/C=C/C=C/C=C2/N(CCCCCC(=O)N[C@@H](Cc3ccccc3)C(=O)C=S(C)(C)=O)c3ccc(S(=O)(=O)O)cc3C2(C)C)C(C)(C)c2cc(S(=O)(=O)[O-])ccc21 [sCy5-Phe-SY]	cathepsin X (Mus musculus, UniProt Q9WUU7)	broader reactivity
CC[N+]1=C(/C=C/C=C/C=C2/N(CCCCCC(=O)N[C@@H](Cc3ccccc3)C(=O)N[C@H](C(=O)C=S(C)(C)=O)C(C)C)c3ccc(S(=O)(=O)O)cc3C2(C)C)C(C)(C)c2cc(S(=O)(=O)[O-])ccc21 [sCy5-Phe-Val-SY]	cathepsin X (Mus musculus, UniProt Q9WUU7)	broader reactivity
CC[N+]1=C(/C=C/C=C/C=C2/N(CCCCCC(=O)NCCCC[C@H](NC(=O)OCc3ccccc3)C(=O)C=S(C)(C)=O)c3ccc(S(=O)(=O)O)cc3C2(C)C)C(C)(C)c2cc(S(=O)(=O)[O-])ccc21 [Cbz-Lys(sCy5)-SY]	cathepsin X (Mus musculus, UniProt Q9WUU7)	broader reactivity
